The reported numbers originate from patent US20230265192A1.

# SYSTEM NAME: human CTLA-4 expressed on the cell surface (human, UniProt P16410 36-223)
# Sequence (P16410 36-223 limits assumed): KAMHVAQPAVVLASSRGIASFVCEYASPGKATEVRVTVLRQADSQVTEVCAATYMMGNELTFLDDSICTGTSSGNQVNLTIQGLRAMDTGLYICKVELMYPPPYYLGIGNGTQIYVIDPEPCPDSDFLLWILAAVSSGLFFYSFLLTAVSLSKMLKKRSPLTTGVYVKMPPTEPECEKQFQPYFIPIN
# EXPERIMENT DESCRIPTION: cell-based or functional assay
Attribute: Promega assay % inhibition

# BINDER, Promega assay % inhibition (%)
rows = [
    ("antibody A5 (L5H5) (antibody, V domains shown, also called aCTLA-4.28; CTLA4.A5) VH: QVQLVESGGGVVQPGRSLRLSCAASGFTFSSYGMHWVRQAPGKGLEWVAVIWYDGNNKYYADSVKGRFTISRDNSKNTLYLQMYSLRAEDTAVYYCARGGILAAGIFDYWGQGTLVTVSS VL: EIVLTQSPGTLSLSPGDRATLSCRASQSGSSSYLAWYQQKPGQAPRLLIYGASSRATGIPDRFSGSGSGTDFTLTISRLEPEDFAVYYCQQYGTSPFTSGPGTKVDIK", 100),
    ("antibody A16 (L16H16) (antibody, V domains shown, also called aCTLA-4.5) VH: QVQLVESGGGVVQPGRSLRLSCAASGFTFSSYGIHWVRQAPGKGLEWVAVIWYDGSNKYYADSVKGRFTISRDNSKNTLYLQMNSLRAEDTAVYYCARGSLLGPFDYWGQGTLVTVSS VL: DIQMTQSPSSLSASVGDRVTITCRASQGISNYLAWYQQKPGKVPKLLIYAASTLQSGVPSRFSGSGSGTDFTLTISSLQPEDVATYYCQNYNSAPWTFGQGTKVEIK", 0),
    ("antibody A4 (L4H4) (antibody, V domains shown, also called aCTLA-4.29) VH: QVQLVESGGGVVQPGRSLRISCAASGFTFSSYGIHWVRQAPGKGLQWVAVIWYDGRNKYYADSVKGRFTISRDNSKNTLYLQMNSLRAEDTAVYYCSRSGSFGAFDIWGQGTMVTVSS VL: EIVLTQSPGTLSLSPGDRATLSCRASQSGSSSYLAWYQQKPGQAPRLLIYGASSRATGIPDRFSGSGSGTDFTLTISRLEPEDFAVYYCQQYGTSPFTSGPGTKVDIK", 81),
    ("antibody A17 (L17H17) (antibody, V domains shown, also called aCTLA-4.17) VH: EVQLVESGGGLVQPGGSLRLSCAASGFTFSNYAMSWVRQAPGKGLEWVSAISGGGLSTYYADSVKGRFTISRDNSKNTLYLQMNSLRAEDTAVYYCAKDLLWLGFDYWGQGTLVTVSS VL: DIQMTQSPSSLSASVGDRVTITCRASQAIRNDLGWYQQKPGKAPKRLIYAASSLQSGVPPRFSGSGSGTEFTLTISSLQPEDFATYYCLQHNSYPLTFGGGTKVEIK", 0),
    ("antibody A11 (L11H11) (antibody, V domains shown, also called aCTLA-4.31) VH: QVQLVESGGGVVQPGRSLRLSCAASGFTFSSYGMHWVRQAPGKGLEWVAVIWYDVGNKYYIDSVKGRFTISRDNSKNTLYLQMNSLRAEDTAVYYCARDYYGSGSPRHFDYWGQGTLVTVSS VL: DIQLTQSPSFLSASVGDRVTITCRASQGISSYLAWYQQKPGKAPKLLIYAASTLQSGVPSRFSGSGSGTEFTLTISSLQPEDFATYYCQQLNSYPPTFGQGTKVEIK", 26.6),
    ("antibody A8 (L8H8) (antibody, V domains shown, also called aCTLA-4.1) VH: QVQLVESGGGVVQPGRSLRLSCAASGFTFSRYGMHWVRQAPGKGLEWVAVIWYDGRNKYYADSVKGRFTISRDNSKNTLYLQMNSLRAEDTALYSCARAGELGPFDYWGQGTLVTVSS VL: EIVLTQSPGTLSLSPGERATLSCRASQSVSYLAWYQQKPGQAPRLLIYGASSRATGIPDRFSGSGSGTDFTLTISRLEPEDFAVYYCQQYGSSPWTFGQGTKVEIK", 54.7),
    ("antibody A1 (L1H1) (antibody, V domains shown, also called aCTLA-4.9; CTLA4.A1) VH: QVQLVESGGGVVQPGRSLRLSCAASGFTFSSFGMHWVRQAPGKGLEWVAVIWYDGRNKYYVDSVKGRFTISRDNSNNTLYLQMNSLRAEDTAVYYCARGEFFGEFFDYWGQGTLVTVSS VL: EIVLTQSPGTLSLSPGEGATLSCRASQSFSSNYLAWYQQKPGQAPRLLIYGASSRATGIPDRFSGSGSGTDFTLTISRLEPEDFAVYYCQQYGTSPFTFGPGTKVDIK", 43.2),
]
